# TEST_DESCRIPTION: Solubility in FeSSIF at pH 5
# Assay type: physicochemical
Recorded measurements of solubility, one per entry

COMPOUND_STRUCTURE	REPORTED_VALUE
COC(=O)N[C@H](C(=O)N1CCC[C@H]1c1nc2cc(F)c([C@H]3CC[C@H](c4cc5nc([C@@H]6CCCN6C(=O)[C@@H](NC(=O)OC)[C@@H](C)OC)n(C(=O)OCCCOP(=O)(O)O)c5cc4F)N3c3cc(F)c(N4CCC(c5ccc(F)cc5)CC4)c(F)c3)cc2[nH]1)[C@@H](C)OC	> 1000 µg/mL
COC(=O)N[C@H](C(=O)N1CCC[C@H]1c1nc2cc(F)c([C@H]3CC[C@H](c4cc5nc([C@@H]6CCCN6C(=O)[C@@H](NC(=O)OC)[C@@H](C)OC)n(COC(=O)CCCOP(=O)(O)O)c5cc4F)N3c3cc(F)c(N4CCC(c5ccc(F)cc5)CC4)c(F)c3)cc2[nH]1)[C@@H](C)OC	> 1000 µg/mL
COC(=O)N[C@H](C(=O)N1CCC[C@H]1c1nc2cc(F)c([C@H]3CC[C@H](c4cc5nc([C@@H]6CCCN6C(=O)[C@@H](NC(=O)OC)[C@@H](C)OC)n(COC(=O)Cc6ccc(OP(=O)(O)O)cc6)c5cc4F)N3c3cc(F)c(N4CCC(c5ccc(F)cc5)CC4)c(F)c3)cc2[nH]1)[C@@H](C)OC	> 1000 µg/mL

The compound listed as `COC(=O)N[C@H](C(=O)N1CCC[C@H]1c1nc2cc([C@H]3CC[C@H](c4cc5nc([C@@H]6CCCN6C(=O)[C@@H](NC(=O)OC)[C@@H](C)OC)[nH]c5cc4F)N3c3cc(F)c(N4CCC(c5ccc(F)cc5)CC4)c(F)c3)c(F)cc2[nH]1)[C@@H](C)OC` shows solubility equal to 169 µg/mL

The compound listed as `CC(C)(C)[C@@H]1NC(=O)O[C@@H]2CCC[C@H]2OC/C=C/C(F)(F)c2nc3ccccc3nc2O[C@@H]2C[C@@H](C(=O)N[C@]3(C(=O)NS(=O)(=O)C4(C)CC4)C[C@H]3C(F)F)N(C2)C1=O` shows solubility equal to 40 µg/mL

The compound listed as `COC(=O)N[C@H](C(=O)N1CCC[C@H]1c1nc2cc(F)c([C@H]3CC[C@H](c4cc5nc([C@@H]6CCCN6C(=O)[C@@H](NC(=O)OC)[C@@H](C)OC)n(COC(=O)N(C)c6ncccc6COP(=O)(O)O)c5cc4F)N3c3cc(F)c(N4CCC(c5ccc(F)cc5)CC4)c(F)c3)cc2[nH]1)[C@@H](C)OC` shows solubility equal to > 1000 µg/mL
